B1: H2-Kb / Ed16-30 (parent complex)
chain 1: GEQVEQRPPHLSVREGDSAVIICTYTDPNSYYFFWYKQEPGAGLQLLMKVFSSTEINEGQGFTVLLNKKDKQLSLNLTAAHPGDSAVYFCAVSEPSSGQKLVFGQGTILKVYL
chain 2: EAAVTQSPRNKVAVTGGKVTLSCNQTNNHNNMYWYRQDTGHGLRLIHYSYGAGSTEKGDIPDGYKASRPSQENFSLILELATPSQTSVYFCAGRDTGQLYFGEGSKLTVL
chain 3: not shown
chain 4: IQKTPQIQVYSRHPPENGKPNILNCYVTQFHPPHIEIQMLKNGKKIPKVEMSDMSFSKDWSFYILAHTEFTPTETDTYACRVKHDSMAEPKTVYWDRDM
chain 5: SIINFEKL

Variants of: B1
PROTOCOL: % of reporter cells activated (NFAT-GFP), raw; also: test concentration or dose not given here
ENDPOINT_LABEL: ratio to parent

mutant="chain 5 I2C" recorded_value=1.12
mutant="chain 5 E6S" recorded_value=0.609
mutant="chain 5 K7I" recorded_value=0.61
mutant="chain 5 I3T" recorded_value=0.613
mutant="chain 5 E6K" recorded_value=0.503
mutant="chain 5 K7W" recorded_value=0.74
mutant="chain 5 I2N" recorded_value=0.951
mutant="chain 5 F5I" recorded_value=1.11
mutant="chain 5 E6C" recorded_value=0.197
mutant="chain 5 K7S" recorded_value=0.842
mutant="chain 5 L8Y" recorded_value=1.13
mutant="chain 5 E6N" recorded_value=0.588
mutant="chain 5 N4T" recorded_value=0.0259
mutant="chain 5 S1E" recorded_value=0.0535
mutant="chain 5 S1F" recorded_value=0.025
mutant="chain 5 N4K" recorded_value=0.0853
mutant="chain 5 N4F" recorded_value=0.00803
mutant="chain 5 L8E" recorded_value=0.823
mutant="chain 5 S1V" recorded_value=0.362
mutant="chain 5 F5L" recorded_value=1.21
mutant="chain 5 I3L" recorded_value=1.03
mutant="chain 5 N4E" recorded_value=0.00872
